- Test: qHTS assay for small molecule agonists of the p53 signaling pathway - cell viability (AID 651633); also: nearly all actives have a fitted effect of over 30% in size
- Condition Context: p53RE-bla HCT-116 viability, ATP luminescence, 16 h; series mostly up to 83.3 µM
- Source text: National Center for Advancing Translational Sciences [NCATS] NIH Chemical Genomics Center [NCGC] U.S. Environmental Protection Agency [EPA] National Institutes of Environmental Health Sciences [NIEHS] National Toxicology Program [NTP] U.S. Food and Drug Administration [FDA] p53, a tumor suppressor protein, is activated following cellular insult, including DNA damage and other cellular stresses. […] The activation of the reporter gene under culture conditions can be detected by fluorescence intensity. […]
Inconclusive results are not listed. Active and inactive are the calls of the source. Calls follow the shape of the full dose curve.
Outcome field: choose from active, inactive

Worked cases, answers included:
| Compound | Category Label |
| --- | --- |
| C=CC(C)(CCC=C(C)C)OC(=O)c1ccccc1 (stereo not given) | inactive |
| CC(=O)[C@@]1(O)CC[C@H]2[C@@H]3C[C@H](C)C4=CC(=O)CC[C@]4(C)[C@H]3CC[C@@]21C | inactive |
| CC(C)=CCCC(C)CC=O (stereo not given) | inactive |
| C=CCCCCCC | inactive |
| CC(C)(C)c1cc(CCC(=O)OCC(COC(=O)CCc2cc(C(C)(C)C)c(O)c(C(C)(C)C)c2)(COC(=O)CCc2cc(C(C)(C)C)c(O)c(C(C)(C)C)c2)COC(=O)CCc2cc(C(C)(C)C)c(O)c(C(C)(C)C)c2)cc(C(C)(C)C)c1O | inactive |

Problem: Any idea what this test logged for NC(N)=NN=C(/C=C/c1ccc([N+](=O)[O-])o1)/C=C/c1ccc([N+](=O)[O-])o1 ?
Result: active

Problem: For Cc1ccccn1 , what call appears in the results of this test?
Result: inactive

Problem: What outcome does the record of this test show for c1ccc(-c2nc[nH]c2-c2ccccc2)cc1 ?
Result: inactive

Problem: Dear all, I need the recorded test outcome for ClC(Cl)(Cl)c1ccc(C(Cl)(Cl)Cl)cc1 , thank you.
Result: inactive

Problem: # fetch the recorded call for O=C1[C@H](CC[C@H](O)c2ccc(F)cc2)[C@@H](c2ccc(O)cc2)N1c1ccc(F)cc1 here
Result: inactive

Hello, the source for this data is PubChem BioAssay (Tox21), in case you need it.
